Reported Actual pIC50 KDR is given for each of the following compounds.
- SYSTEM_UNDER_TEST: KDR (Homo sapiens)
- Sequence (P35968 20-1356): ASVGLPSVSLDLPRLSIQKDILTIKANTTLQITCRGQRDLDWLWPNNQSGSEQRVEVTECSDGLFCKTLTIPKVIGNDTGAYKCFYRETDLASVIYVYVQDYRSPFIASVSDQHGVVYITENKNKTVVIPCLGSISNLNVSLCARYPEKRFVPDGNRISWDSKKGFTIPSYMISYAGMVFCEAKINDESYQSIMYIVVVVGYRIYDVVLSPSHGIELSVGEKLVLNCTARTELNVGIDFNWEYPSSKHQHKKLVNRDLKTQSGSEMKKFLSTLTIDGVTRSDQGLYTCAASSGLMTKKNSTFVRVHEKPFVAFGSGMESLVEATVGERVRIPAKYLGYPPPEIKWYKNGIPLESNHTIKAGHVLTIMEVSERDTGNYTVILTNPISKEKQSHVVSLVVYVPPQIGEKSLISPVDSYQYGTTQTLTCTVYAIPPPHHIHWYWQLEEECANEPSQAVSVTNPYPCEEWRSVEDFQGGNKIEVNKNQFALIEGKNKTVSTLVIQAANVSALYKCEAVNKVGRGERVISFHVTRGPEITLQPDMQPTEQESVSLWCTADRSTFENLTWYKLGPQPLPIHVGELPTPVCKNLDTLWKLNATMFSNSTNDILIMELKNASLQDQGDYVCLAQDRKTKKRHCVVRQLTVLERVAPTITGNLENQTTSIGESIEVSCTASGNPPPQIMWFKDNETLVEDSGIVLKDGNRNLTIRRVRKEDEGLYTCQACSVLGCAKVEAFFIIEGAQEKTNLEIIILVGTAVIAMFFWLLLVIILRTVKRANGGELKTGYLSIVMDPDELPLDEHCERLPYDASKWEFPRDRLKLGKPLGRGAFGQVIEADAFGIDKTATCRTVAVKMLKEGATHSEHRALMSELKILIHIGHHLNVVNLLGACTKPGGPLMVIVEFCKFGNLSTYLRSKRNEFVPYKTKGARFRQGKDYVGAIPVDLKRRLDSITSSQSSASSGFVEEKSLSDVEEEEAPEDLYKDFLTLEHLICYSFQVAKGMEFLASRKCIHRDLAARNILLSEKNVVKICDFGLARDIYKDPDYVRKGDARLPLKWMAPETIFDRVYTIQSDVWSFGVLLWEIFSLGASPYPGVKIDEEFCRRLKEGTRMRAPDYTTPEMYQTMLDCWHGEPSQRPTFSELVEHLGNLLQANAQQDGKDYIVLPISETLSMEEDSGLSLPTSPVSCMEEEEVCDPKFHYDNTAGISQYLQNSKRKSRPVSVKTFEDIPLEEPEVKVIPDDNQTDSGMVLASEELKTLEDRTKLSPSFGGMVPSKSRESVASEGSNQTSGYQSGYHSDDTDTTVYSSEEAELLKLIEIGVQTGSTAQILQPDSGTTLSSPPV
- PROCEDURE_SUMMARY: KDR inhibitory activity of designed new compounds (preliminary pharmacological evaluation)
- Assay type: biochemical
ASSAY_METRIC: Actual pIC50 KDR

- COMPOUND: "CCNC(=O)c1nc2ccc(C(=O)c3cccc(NC(=O)c4cccc(C(F)(F)F)c4)c3)cc2[nH]1"
  ASSAY_METRIC: "Actual pIC50 KDR"
  VALUE_MEASURED: 6.41
- COMPOUND: "CNC(=O)c1nc2ccc(C(=O)c3cccc(NC(=O)c4cccc(F)c4)c3)cc2[nH]1"
  ASSAY_METRIC: "Actual pIC50 KDR"
  VALUE_MEASURED: 6.05
- COMPOUND: "CNC(=O)c1nc2ccc(C(=O)c3cccc(NC(=O)c4ccc(C)cc4)c3)cc2[nH]1 [Compound D1]"
  ASSAY_METRIC: "Actual pIC50 KDR"
  VALUE_MEASURED: 6.00
- COMPOUND: "CNC(=O)c1nc2ccc(C(=O)c3cccc(NC(=O)c4cccc(Cl)c4)c3)cc2[nH]1 [Compound D2]"
  ASSAY_METRIC: "Actual pIC50 KDR"
  VALUE_MEASURED: 6.68
- COMPOUND: "CNC(=O)c1nc2ccc(C(=O)c3cccc(NC(=O)c4ccc(Cl)cc4)c3)cc2[nH]1"
  ASSAY_METRIC: "Actual pIC50 KDR"
  VALUE_MEASURED: 6.02
